- RUN_PARAMETERS: 25.0 °C

>  <MOLECULE>
Clc1c(Cl)c(Cl)c(Cl)c(Cl)c1Cl

>  <log10 OH rate constant (cm³/molecule/s)>
-13.6

$$$$
>  <MOLECULE>
C=Cc1ccccn1

>  <log10 OH rate constant (cm³/molecule/s)>
-10.2

$$$$
>  <MOLECULE>
O=C/C=C/C=O

>  <log10 OH rate constant (cm³/molecule/s)>
-10.4

$$$$
>  <MOLECULE>
Oc1ccc2ccccc2c1

>  <log10 OH rate constant (cm³/molecule/s)>
-9.77

$$$$
>  <MOLECULE>
CCCCCC(C)=O

>  <log10 OH rate constant (cm³/molecule/s)>
-10.9

$$$$
>  <MOLECULE>
O=CC(F)Cl (stereo not given)

>  <log10 OH rate constant (cm³/molecule/s)>
-11.7

$$$$
>  <MOLECULE>
FC(F)C(F)F

>  <log10 OH rate constant (cm³/molecule/s)>
-14.2

$$$$
>  <MOLECULE>
CC(C)Cl

>  <log10 OH rate constant (cm³/molecule/s)>
-12

$$$$
>  <MOLECULE>
FC(F)(F)CCC(F)(F)F

>  <log10 OH rate constant (cm³/molecule/s)>
-14.1

$$$$
>  <MOLECULE>
O=CC(F)(F)F

>  <log10 OH rate constant (cm³/molecule/s)>
-12.2

$$$$

====

Label met when logP >= 3; otherwise not met.

>  <COMPOUND>
Cc1ccccc1CCN

>  <ASSIGNED_CLASS>
not met

$$$$
>  <COMPOUND>
O=C1CC[C@@]2(O)[C@H]3Cc4ccc(O)c5c4[C@@]2(CCN3CC2CC2)[C@H]1O5

>  <ASSIGNED_CLASS>
not met

$$$$
>  <COMPOUND>
O=C1NCCC2CNC(=O)C12 (stereo not given)

>  <ASSIGNED_CLASS>
not met

$$$$
>  <COMPOUND>
Cc1nnc(-c2ccccc2)c(=O)n1N

>  <ASSIGNED_CLASS>
not met

$$$$
>  <COMPOUND>
ClC1=C(Cl)C2(Cl)C3C(Cl)C(Cl)CC3C1(Cl)C2(Cl)Cl (stereo not given)

>  <ASSIGNED_CLASS>
met

$$$$
>  <COMPOUND>
CC(C)(C)OCCO

>  <ASSIGNED_CLASS>
not met

$$$$
>  <COMPOUND>
CCCCCCCCC(C)=O

>  <ASSIGNED_CLASS>
met

$$$$
>  <COMPOUND>
COCCOCCOC

>  <ASSIGNED_CLASS>
not met

$$$$
>  <COMPOUND>
Brc1ccccc1-c1ccccc1

>  <ASSIGNED_CLASS>
met

$$$$
>  <COMPOUND>
C[Si](C)(C)O[Si](C)(C)O[Si](C)(C)C

>  <ASSIGNED_CLASS>
met

$$$$
>  <COMPOUND>
c1ccc(CNc2[nH]cnc3ncnc2-3)cc1

>  <ASSIGNED_CLASS>
not met

$$$$
>  <COMPOUND>
Clc1ccc(Nc2cc3nc4ccccc4n(-c4ccc(Cl)cc4)c-3cc2=NCC2CCNCC2)cc1

>  <ASSIGNED_CLASS>
met

$$$$
>  <COMPOUND>
CCCCCCCCCCCCN1CC(C(=O)O)CC1=O (stereo not given)

>  <ASSIGNED_CLASS>
not met

$$$$
>  <COMPOUND>
Cc1cc(O)cc(C)c1Cl

>  <ASSIGNED_CLASS>
met

$$$$

====

Measured log10 OH rate constant (cm³/molecule/s) accompanies every entry in the list below.
- RUN_PARAMETERS: 25.0 °C

>  <COMPOUND>
FC(F)(F)C(Cl)Br (stereo unspecified)

>  <log10 OH rate constant (cm³/molecule/s)>
-13.3

$$$$
>  <COMPOUND>
CC1=CCC(=C(C)C)CC1

>  <log10 OH rate constant (cm³/molecule/s)>
-9.65

$$$$
>  <COMPOUND>
COCC(C)O (stereo unspecified)

>  <log10 OH rate constant (cm³/molecule/s)>
-10.7

$$$$
>  <COMPOUND>
CC(Br)Br

>  <log10 OH rate constant (cm³/molecule/s)>
-12.6

$$$$
>  <COMPOUND>
Oc1cccc2ccccc12

>  <log10 OH rate constant (cm³/molecule/s)>
-9.26

$$$$
>  <COMPOUND>
c1ccc2[nH]ccc2c1

>  <log10 OH rate constant (cm³/molecule/s)>
-9.81

$$$$
>  <COMPOUND>
C=C(C)C(=O)OC

>  <log10 OH rate constant (cm³/molecule/s)>
-10.6

$$$$
>  <COMPOUND>
CC/C=C\CCOC(C)=O

>  <log10 OH rate constant (cm³/molecule/s)>
-10.1

$$$$
>  <COMPOUND>
Cl[C@H]1[C@H](Cl)[C@@H](Cl)[C@@H](Cl)[C@H](Cl)[C@H]1Cl (racemic)

>  <log10 OH rate constant (cm³/molecule/s)>
-12.8

$$$$
>  <COMPOUND>
C=C(C)OC(C)=O

>  <log10 OH rate constant (cm³/molecule/s)>
-10.2

$$$$
>  <COMPOUND>
c1ccc(Nc2ccccc2)cc1

>  <log10 OH rate constant (cm³/molecule/s)>
-9.71

$$$$
>  <COMPOUND>
CCCCCl

>  <log10 OH rate constant (cm³/molecule/s)>
-11.8

$$$$
>  <COMPOUND>
C=CCOC(C)=O

>  <log10 OH rate constant (cm³/molecule/s)>
-10.6

$$$$
>  <COMPOUND>
CNC(=O)OC

>  <log10 OH rate constant (cm³/molecule/s)>
-11.4

$$$$
>  <COMPOUND>
CCCC=O

>  <log10 OH rate constant (cm³/molecule/s)>
-10.6

$$$$
>  <COMPOUND>
CC(=O)CC1C(CC=O)C1(C)C (stereo unspecified)

>  <log10 OH rate constant (cm³/molecule/s)>
-10.3

$$$$
>  <COMPOUND>
O=C1C=CC(=O)c2ccccc21

>  <log10 OH rate constant (cm³/molecule/s)>
-11.5

$$$$
>  <COMPOUND>
FC(F)OC(F)(F)C(F)Cl (stereo unspecified)

>  <log10 OH rate constant (cm³/molecule/s)>
-13.9

$$$$
>  <COMPOUND>
C=CC1(C)CCC(O)O1 (stereo unspecified)

>  <log10 OH rate constant (cm³/molecule/s)>
-10.1

$$$$
>  <COMPOUND>
CCCc1c(F)c(F)c(F)c(F)c1F

>  <log10 OH rate constant (cm³/molecule/s)>
-11.5

$$$$
>  <COMPOUND>
c1cc2ccc3cccc4ccc(c1)c2c34

>  <log10 OH rate constant (cm³/molecule/s)>
-10.3

$$$$
>  <COMPOUND>
CCCCCBr

>  <log10 OH rate constant (cm³/molecule/s)>
-11.4

$$$$
>  <COMPOUND>
COC(=O)CCC(=O)OC

>  <log10 OH rate constant (cm³/molecule/s)>
-11.9

$$$$
>  <COMPOUND>
CC1OCCO1

>  <log10 OH rate constant (cm³/molecule/s)>
-11

$$$$
>  <COMPOUND>
COCOC

>  <log10 OH rate constant (cm³/molecule/s)>
-11.3

$$$$
>  <COMPOUND>
CC(C)[N+](=O)[O-]

>  <log10 OH rate constant (cm³/molecule/s)>
-12.6

$$$$

====

- RUN_PARAMETERS: 25 °C
ENDPOINT: log10(solubility) (log10 of the value in mM)

>  <MOLECULE>
O=C(O)C(Br)(Br)Br

>  <VALUE_REPORTED>
2.83

$$$$
>  <MOLECULE>
CCCCN(CC)C(=O)SCCC

>  <VALUE_REPORTED>
-0.31

$$$$
>  <MOLECULE>
c1ccc2c(c1)ccc1c3ccccc3ccc21

>  <VALUE_REPORTED>
-5.06

$$$$
>  <MOLECULE>
CCCCCO[N+](=O)[O-]

>  <VALUE_REPORTED>
0.43

$$$$
>  <MOLECULE>
CN/C(=N\C#N)NCCSCc1nc[nH]c1C

>  <VALUE_REPORTED>
1.61

$$$$
>  <MOLECULE>
O=NN(c1ccccc1)c1ccccc1

>  <VALUE_REPORTED>
-0.75

$$$$
>  <MOLECULE>
CC1(C)Cc2cccc([N+](=O)[O-])c2O1

>  <VALUE_REPORTED>
-0.21

$$$$
>  <MOLECULE>
c1ccc2c(c1)cc1ccc3cccc4ccc2c1c34

>  <VALUE_REPORTED>
-5.19

$$$$
>  <MOLECULE>
CC(C)(C)Br

>  <VALUE_REPORTED>
0.64

$$$$
>  <MOLECULE>
O=Nc1ccc2ccccc2c1O

>  <VALUE_REPORTED>
0.46

$$$$
>  <MOLECULE>
Cc1ccc2cc3ccc4ccccc4c3cc2c1

>  <VALUE_REPORTED>
-3.64

$$$$
>  <MOLECULE>
CCOC

>  <VALUE_REPORTED>
2.92

$$$$
>  <MOLECULE>
Brc1ccc(I)cc1

>  <VALUE_REPORTED>
-1.51

$$$$
>  <MOLECULE>
CC1(C)[C@H]2CC[C@](C)(C2)[C@H]1O

>  <VALUE_REPORTED>
0.73

$$$$
>  <MOLECULE>
CCOC(=O)COc1cc(Cl)c(Cl)cc1Cl

>  <VALUE_REPORTED>
-1.85

$$$$
>  <MOLECULE>
CC(=O)OCC(=O)[C@@]1(O)CC[C@H]2[C@@H]3CCC4=CC(=O)C=C[C@]4(C)[C@H]3[C@@H](O)C[C@@]21C

>  <VALUE_REPORTED>
-1.37

$$$$
>  <MOLECULE>
O=C(Oc1ccccc1)c1ccccc1C(=O)Oc1ccccc1

>  <VALUE_REPORTED>
-3.59

$$$$
>  <MOLECULE>
BrC1CCCCC1

>  <VALUE_REPORTED>
0.71

$$$$
>  <MOLECULE>
CCC(Cl)CC

>  <VALUE_REPORTED>
0.37

$$$$
>  <MOLECULE>
Clc1ccc(-c2ccccc2Cl)cc1

>  <VALUE_REPORTED>
-2.28

$$$$
>  <MOLECULE>
CC(C)N(C(=O)SCC(Cl)=CCl)C(C)C

>  <VALUE_REPORTED>
-1.29

$$$$
>  <MOLECULE>
N#CCC#N

>  <VALUE_REPORTED>
3.30

$$$$
>  <MOLECULE>
CCCCCCOC(=O)c1ccccc1C(=O)OCCCCCC

>  <VALUE_REPORTED>
-3.83

$$$$
>  <MOLECULE>
CCC(C)n1c(=O)[nH]c(C)c(Br)c1=O (stereo not drawn)

>  <VALUE_REPORTED>
0.49

$$$$
>  <MOLECULE>
Cc1ccccc1N

>  <VALUE_REPORTED>
2.19

$$$$
>  <MOLECULE>
C[Si](C)(C)O[Si](C)(C)O[Si](C)(C)O[Si](C)(C)C

>  <VALUE_REPORTED>
-4.66

$$$$
>  <MOLECULE>
CCCCOCCOC(=O)COc1ccc(Cl)cc1Cl

>  <VALUE_REPORTED>
-1.43

$$$$
>  <MOLECULE>
CCCCC(C)CCC (stereo not drawn)

>  <VALUE_REPORTED>
-3.05

$$$$
>  <MOLECULE>
CC=CC#N

>  <VALUE_REPORTED>
2.57

$$$$
>  <MOLECULE>
Clc1cc2ccccc2cc1Cl

>  <VALUE_REPORTED>
-3.36

$$$$
>  <MOLECULE>
COC(C)(C)CC(C)=O

>  <VALUE_REPORTED>
3.33

$$$$
>  <MOLECULE>
CCCCO[N+](=O)[O-]

>  <VALUE_REPORTED>
0.97

$$$$
>  <MOLECULE>
CON(C)C(=O)Nc1ccc(Cl)c(Cl)c1

>  <VALUE_REPORTED>
-0.52

$$$$
>  <MOLECULE>
O=C1c2ccccc2C(=O)c2c(O)cccc21

>  <VALUE_REPORTED>
-1.42

$$$$
>  <MOLECULE>
CCCCCCCCCCCCC

>  <VALUE_REPORTED>
-4.59

$$$$
>  <MOLECULE>
Nc1nc[nH]n1

>  <VALUE_REPORTED>
3.52

$$$$
>  <MOLECULE>
CCCCC(C=O)CC (stereo not drawn)

>  <VALUE_REPORTED>
0.49

$$$$
>  <MOLECULE>
CC(O)c1ccccc1 (stereo not drawn)

>  <VALUE_REPORTED>
1.64

$$$$
>  <MOLECULE>
Clc1ccc(-c2ccc(Cl)c(Cl)c2Cl)cc1Cl

>  <VALUE_REPORTED>
-4.98

$$$$
>  <MOLECULE>
CCCCCCCCOC(=O)COc1ccc(Cl)cc1Cl

>  <VALUE_REPORTED>
-4.02

$$$$
>  <MOLECULE>
COC(=O)COc1ccc(Cl)cc1Cl

>  <VALUE_REPORTED>
0.04

$$$$
>  <MOLECULE>
C=C(C)C(=O)OCC(C)C

>  <VALUE_REPORTED>
0.96

$$$$
>  <MOLECULE>
O=C1CCO1

>  <VALUE_REPORTED>
3.71

$$$$
